Procedure text: soluble on expression in E. coli; label from the status in PepcDB or PDB records
Measurement kind: soluble on expression in E. coli

seq_text=MNISLSRVHFPVTTLGPGQRLGLWFQGCSIRCAGCISADTWGPGKHPLPLAQVLDDLQPWLARAEGITLSGGEPFDQPEALLALLRGLRERTGVDILVYSGHSLETLQPLLQQAEGLLDALICDPFEQQQAQTLVLRGSDNQRLIFLTELGRQRLSTYQRPLHHEDRALDVMFDDDGSVWMAGIPRRDDVLRLRDLLHDQGHQLQISAHTSRRRLEHHHHHH measurement_kind="soluble on expression in E. coli" measured_value="not soluble"
seq_text=MFRSVLVEAAVRVESPLLAHRLEDALLHACKQRFCSRILPSLGVCLTALRICKLVDGAGKQLALEIWPVEVSGGGLRARVHVELLLWSPLPHELAFAQVRSCSRFGIRLSILNGFDYAFVPPGSMPEPCTYHEEQRCWSWRFNEDDFVIGEGDWVRVLIERVEYATDSAMATFDSPGTVGSGPPLHILPPPVPVGRTVMETDQANATPGAHPEHAPPLETEPPEFWETPSILPLRVWARLDAPGLGPIDWWS measurement_kind="soluble on expression in E. coli" measured_value="not soluble"
seq_text=MKDKQLRLRIYRSAFSSMKNAIVEKAREFGVPVILVDPSYTSSICPVHGSKIIYQPDGGSAPRVGVCGKGGERWHRDVVALYNLRKRAGDVLEHHHHHH measurement_kind="soluble on expression in E. coli" measured_value="not soluble"
